- EXPERIMENT DESCRIPTION: blockers of DNA damage checkpoint Chk1 activation – imaging, HeLa, hydroxyurea, phospho-Chk1 antibody, percent positive cells, primary screen (AID 1186)
- RUN PARAMETERS: hydroxyurea-induced phospho-Chk1 immunofluorescence imaging, higher = more signal
Calls of active or inactive are those of the source. No rule for the calls is given here.
Here, each record is paired with measured z-score data.

* CC(C)(C)OC(=O)CC[C@]1(C(=O)N2CCCCC2)N=C(c2ccc(OCCCO)cc2)O[C@H]1c1ccccc1CN=[N+]=[N-] | -0.692 (inactive)
* CCOC(=O)C[C@H]1[C@H](OC(=O)Cc2ccc3c(c2)OCO3)[C@@H](NC(=O)c2ccccc2)c2cc(OCCCO)ccc2N1C(=O)c1ccc2ccccc2n1 | -0.467 (inactive)

input: Return value of z-score for input COC(=O)[C@@]1(Cc2ccc(OC)cc2)[C@H]2c3cc(C(=O)N(C)C)n(Cc4cc(F)c(F)c(F)c4)c3C[C@H]2CN1C(=O)c1ccccc1 , no commentary.
output: 0.102 (inactive)

input: Return value of z-score for input C[N+](C)(C)CCCCCCNC(=O)[C@@H]1C[C@@H]2C(=O)NCC(=O)N2[C@@H]1c1cccc(OCCO)c1 , no commentary.
output: -0.177 (inactive)

input: Return value of z-score for input COc1ccc([Si](C)(C)[C@@H]2[C@@H](CCO)O[C@]3(C(=O)N(Cc4cccc(N5C(=O)COc6ccccc65)c4)c4ccccc43)[C@H]2C)cc1 , no commentary.
output: -1.02 (inactive)

input: Return value of z-score for input COCCCNC(=O)[C@@H]1c2ccccc2C(=O)N(c2ccc(C)cn2)[C@H]1c1ccc(CO)cc1 , no commentary.
output: -0.106 (inactive)

input: Return value of z-score for input COCCOC(=O)N1C(=O)[C@@]2(c3cc(C#CCNC(N)=O)ccc31)[C@H](c1ccc(OCCO)cc1)N1[C@H](c3ccccc3)[C@H](c3ccccc3)OC(=O)[C@H]1[C@@H]2C(=O)N1CCN(c2ncccn2)CC1 , no commentary.
output: -0.117 (inactive)

input: Return value of z-score for input Cc1cc(C)c(C(O)C2C=CC3C(=O)N(c4ccccc4)C(=O)C3N2Nc2ccc([N+](=O)[O-])cc2)c(C)c1 (configuration not stated) , no commentary.
output: 0.487 (inactive)

input: Return value of z-score for input CCN(CC)c1ccc(N2CC=CC34O[C@@H]5/C=C\CCCOC(=O)C5[C@H]3C(=O)N(CCCCCCO)[C@@H]4C2=O)cc1 (some centres not stated) , no commentary.
output: -0.0771 (inactive)

input: Return value of z-score for input COC(=O)C(CC#Cc1ccc2c(c1)[C@]1(C(=O)N2)[C@H](c2ccc(O)cc2)N2[C@H](c3ccccc3)[C@H](c3ccccc3)OC(=O)[C@H]2[C@@H]1C(=O)O)C(=O)OC , no commentary.
output: 0.223 (inactive)

input: Return value of z-score for input CN(C)CCCC[C@@H]1NC(=O)[C@H]2C[C@@H](C(=O)NCCCCCCNC(=O)CS)[C@@H](c3ccc(O)cc3)N2C1=O , no commentary.
output: -0.346 (inactive)

input: Return value of z-score for input COC(=O)c1c(CC[C@@H](CO)NC(=O)N[C@@H](C)Cn2cc(C3(O)CCCC3)nn2)oc(C(C)=O)c1C(=O)OC , no commentary.
output: 1.1 (inactive)
